Source: ChEMBL document CHEMBL4138207

# test summary: Induction of 3.3 mM glucose-stimulated insulin secretion in NMRI mouse pancreatic islets at 10^-6 M after 60 mins by radioimmunoassay
# Format: cell-based
# condition summary: pancreatic islet, 1 h, 1 µM
measurement label: Activity

[[record]]
smiles_record = "O=C(/C=C/c1ccc(O)c(O)c1)O[C@@H](C(=O)O)[C@@H](OC(=O)/C=C/c1ccc(O)c(O)c1)C(=O)O"
reported_value = "Non-Toxic"

[[record]]
smiles_record = "O=C(/C=C/c1ccc(O)c(O)c1)O[C@H](Cc1ccc(O)c(O)c1)C(=O)O"
reported_value = "Non-Toxic"

[[record]]
smiles_record = "O=C(/C=C/c1ccc(O)c(O)c1)O[C@@H](C(=O)O)[C@@H](O)C(=O)O"
reported_value = "Non-Toxic"

[[record]]
smiles_record = "O=c1cc(-c2ccc(O)cc2)oc2c([C@@H]3O[C@H](CO)[C@@H](O)[C@H](O)[C@H]3O)c(O)c([C@@H]3O[C@H](CO)[C@@H](O)[C@H](O)[C@H]3O)c(O)c12"
reported_value = "Non-Toxic"


// next item, Activity requested
Input line: Can you look up the measured Activity of O=C(O)/C=C/c1ccc(O)c(O)c1 for me?
Output line: Non-Toxic
